System: DU-145 prostate
ASSAY SUMMARY: NCI-60 one-dose screen, 48 h
EXPERIMENTAL CONTEXT: 10 µM unless noted
Compounds without any hit were thinned out: in the full panel of roughly 83,000, 20% have a hit. Active and inactive are the calls of the source. Rule for the calls: active = growth percent below 10; inactive = the rest.
Classes used: active, inactive

[
  {
    "RECORD SMILES": "O=P(O)(c1ccccc1)c1ccccc1I",
    "EXPERIMENTAL SYSTEM": "DU-145 prostate",
    "CLASS LABEL": "inactive"
  },
  {
    "RECORD SMILES": "COc1cc2nc(Cl)nc(Nc3cccc(C(=O)/C=C/c4ccc(F)cc4)c3)c2cc1OC",
    "EXPERIMENTAL SYSTEM": "DU-145 prostate",
    "CLASS LABEL": "inactive"
  },
  {
    "RECORD SMILES": "O=C1C(Cl)=C(Nc2ccc(S(=O)(=O)c3ccc(NC4=C(Cl)C(=O)c5ccccc5C4=O)cc3)cc2)C(=O)c2ccccc21",
    "EXPERIMENTAL SYSTEM": "DU-145 prostate",
    "CLASS LABEL": "active"
  },
  {
    "RECORD SMILES": "Cc1csc(Nc2nc(-c3ccc(Cl)cc3)nc(C(Cl)(Cl)Cl)n2)n1",
    "EXPERIMENTAL SYSTEM": "DU-145 prostate",
    "CLASS LABEL": "inactive"
  },
  {
    "RECORD SMILES": "CCCCC[C@H]1CC=C2C(=O)C=C[C@@H]2CC=CCCCC(=O)O[C@@H](CCCCC)CC=C2C(=O)C=C[C@@H]2CC=CCCCC(=O)O[C@@H](CCCCC)CC=C2C(=O)C=C[C@@H]2CC=CCCCC(=O)O1",
    "EXPERIMENTAL SYSTEM": "DU-145 prostate",
    "CLASS LABEL": "inactive"
  },
  {
    "RECORD SMILES": "O=C(/C=C/c1cccc(O)c1)c1ccccc1O",
    "EXPERIMENTAL SYSTEM": "DU-145 prostate",
    "CLASS LABEL": "inactive"
  },
  {
    "RECORD SMILES": "N#C/C(=C\\c1ccc(-c2ccccc2)o1)c1nc(-c2ccco2)cs1",
    "EXPERIMENTAL SYSTEM": "DU-145 prostate",
    "CLASS LABEL": "inactive"
  },
  {
    "RECORD SMILES": "COC(=O)[C@]12CC[C@@H](C)[C@H](C)[C@@H]1C1=CC(=O)[C@@H]3[C@@]4(C)C[C@@H](OC(C)=O)[C@H](OC(C)=O)[C@@](C)(COC(C)=O)[C@@H]4C(=O)C[C@@]3(C)[C@]1(C)CC2",
    "EXPERIMENTAL SYSTEM": "DU-145 prostate",
    "CLASS LABEL": "inactive"
  },
  {
    "RECORD SMILES": "CCc1ccccc1NC(=O)c1sc2nc3c(cc2c1N)CCCC3",
    "EXPERIMENTAL SYSTEM": "DU-145 prostate",
    "CLASS LABEL": "inactive"
  },
  {
    "RECORD SMILES": "O=C1c2cc3c(cc2-c2c1c1ccc(Cl)cc1c(=O)n2C[C@H](O)[C@@H](O)[C@H](O)CO)OCO3",
    "EXPERIMENTAL SYSTEM": "DU-145 prostate",
    "CLASS LABEL": "active"
  }
]

* * *

Test system: SNB-19 CNS
ASSAY SUMMARY: NCI-60 one-dose screen, 48 h (100 = growth as untreated, 0 = no growth, -100 = all killed)
EXPERIMENTAL CONTEXT: 10 µM unless noted
About 83,000 compounds went through this panel and 20% of them were active in at least one assay; those are over-represented in the sample as a whole. The source made the active and inactive calls. How the source made its calls: active means growth percent below 10; inactive means the rest.
Listing: growth of selected compounds

[
  {
    "RECORD SMILES": "N#CCCCCCn1c2ccccc2c2c3c(c4c5ccccc5n(CCCCCC#N)c4c21)C(=O)N(O)C3=O",
    "growth": "66.7% (inactive)"
  },
  {
    "RECORD SMILES": "CCCCC[C@H]1CC=C2C(=O)C=C[C@@H]2CC=CCCCC(=O)O[C@@H](CCCCC)CC=C2C(=O)C=C[C@@H]2CC=CCCCC(=O)O[C@@H](CCCCC)CC=C2C(=O)C=C[C@@H]2CC=CCCCC(=O)O1",
    "growth": "9.32% [8.75 µM] (active)"
  },
  {
    "RECORD SMILES": "COC(=O)[C@]12CC[C@@H](C)[C@H](C)[C@@H]1C1=CC(=O)[C@@H]3[C@@]4(C)C[C@@H](O)[C@H](O)[C@@]5(C)COC(=C45)C[C@@]3(C)[C@]1(C)CC2",
    "growth": "60.8% (inactive)"
  },
  {
    "RECORD SMILES": "CCCCn1c(-c2ccc(O)cc2)cn2c3c(=O)[nH]c(=O)n(C)c3nc12",
    "growth": "82.5% (inactive)"
  }
]

* * *

System: CCRF-CEM leukemia
ASSAY SUMMARY: NCI-60 one-dose screen, 48 h
EXPERIMENTAL CONTEXT: 10 µM unless noted
About 83,000 compounds went through this panel and 20% of them were active in at least one assay; those are over-represented in the sample as a whole. Calls of active or inactive are those of the source. The calls were made as follows: active = growth percent below 10; inactive = the rest.
Classes used: 1 for active, -1 for inactive

[
  {
    "COMPOUND": "Cc1csc(Nc2nc(-c3cccc(Br)c3)nc(C(Cl)(Cl)Cl)n2)n1",
    "CLASS LABEL": -1
  },
  {
    "COMPOUND": "Cc1nnc2nc(N)[nH]n2c1=O",
    "CLASS LABEL": -1
  },
  {
    "COMPOUND": "CCN1CCN(C(=O)[C@]23CCC(C)(C)C[C@H]2C2=CC[C@@H]4[C@@]5(C)CC/C(=N/O)C(C)(C)[C@@H]5CC[C@@]4(C)[C@]2(C)CC3)CC1",
    "CLASS LABEL": -1
  },
  {
    "COMPOUND": "O=C1C(=O)N(CCCCn2cc(-c3ccccc3)nn2)c2ccccc21",
    "CLASS LABEL": -1
  },
  {
    "COMPOUND": "N#CCCCCCn1c2ccccc2c2c3c(c4c5ccccc5n(CCCCCC#N)c4c21)C(=O)N(O)C3=O",
    "CLASS LABEL": -1
  },
  {
    "COMPOUND": "Brc1ccc(Cn2nnnc2-c2ccn(-c3ccccc3)n2)cc1",
    "CLASS LABEL": -1
  },
  {
    "COMPOUND": "COC(=O)[C@]12CC[C@@H](C)[C@H](C)[C@@H]1C1=CC[C@@H]3[C@@]4(C)C=C(O)C(=O)C(C)=C4CC[C@@]3(C)[C@]1(C)CC2",
    "CLASS LABEL": 1
  },
  {
    "COMPOUND": "COC(c1ccccc1)(c1ccccc1)c1ccccc1",
    "CLASS LABEL": -1
  },
  {
    "COMPOUND": "COC(=O)C(Cc1ccccc1)n1cc(COc2nc(Cl)nc(Nc3ccc(Cl)cc3)n2)nn1 (stereo unspecified)",
    "CLASS LABEL": -1
  },
  {
    "COMPOUND": "C=C(C)[C@@H]1CC[C@]2(C=NCCCNCCCCNCCCN)CC[C@]3(C)[C@H](CC[C@@H]4[C@@]5(C)CCCNC(C)(C)[C@@H]5CC[C@]43C)[C@@H]12",
    "CLASS LABEL": -1
  },
  {
    "COMPOUND": "Cc1cc(C=O)c(C)c2c1[nH]c1ccccc12",
    "CLASS LABEL": -1
  }
]

* * *

Tested on: NCI-H522 lung
ASSAY SUMMARY: NCI-60 one-dose screen, 48 h (100 = growth as untreated, 0 = no growth, -100 = all killed)
EXPERIMENTAL CONTEXT: 10 µM unless noted
Compounds without any hit were thinned out: in the full panel of roughly 83,000, 20% have a hit.
Rule: measured growth below 50% gets 1.0; anything equal to or greater than 50% gets 0.0.

[
  {
    "COMPOUND": "Cn1cc(-c2csc(-c3cn(CCNC(=O)OC(C)(C)C)c4ccccc34)n2)c2cccnc21",
    "EXPERIMENTAL SYSTEM": "NCI-H522 lung",
    "CLASS LABEL": 0.0
  },
  {
    "COMPOUND": "CC(C)(C)c1ccc(OCCCCCCCN2CCNCC2)cc1",
    "EXPERIMENTAL SYSTEM": "NCI-H522 lung",
    "CLASS LABEL": 0.0
  },
  {
    "COMPOUND": "COc1cc(-c2cc3ncccc3c3nc(N)c4cccnc4c23)cc(OC)c1OC",
    "EXPERIMENTAL SYSTEM": "NCI-H522 lung",
    "CLASS LABEL": 1.0
  },
  {
    "COMPOUND": "COc1ccc(/C=C/C(=O)c2ccc([N+](=O)[O-])cc2)cc1",
    "EXPERIMENTAL SYSTEM": "NCI-H522 lung",
    "CLASS LABEL": 0.0
  },
  {
    "COMPOUND": "COc1ccc(C2C(C#N)=C(N)Oc3c2sc2c(F)cccc32)cc1 (stereo not drawn)",
    "EXPERIMENTAL SYSTEM": "NCI-H522 lung",
    "CLASS LABEL": 1.0
  },
  {
    "COMPOUND": "CC(=O)Nc1cc(F)cc(C(F)(F)F)c1Cl",
    "EXPERIMENTAL SYSTEM": "NCI-H522 lung",
    "CLASS LABEL": 0.0
  },
  {
    "COMPOUND": "CCN(CC)c1ccc(/C=C/c2cc(C)c3ccccc3n2)cc1",
    "EXPERIMENTAL SYSTEM": "NCI-H522 lung",
    "CLASS LABEL": 1.0
  },
  {
    "COMPOUND": "COc1cc(-c2cc(-c3nc4ccccc4[nH]3)[nH]n2)cc(OC)c1OC",
    "EXPERIMENTAL SYSTEM": "NCI-H522 lung",
    "CLASS LABEL": 1.0
  },
  {
    "COMPOUND": "O=C1c2cccc3cccc(c23)C(=O)N1CC#Cc1ccc2c3c(cccc13)C(=O)N(CCN1CCNCC1)C2=O",
    "EXPERIMENTAL SYSTEM": "NCI-H522 lung",
    "CLASS LABEL": 0.0
  },
  {
    "COMPOUND": "N#C/C(=C\\c1ccc(-c2ccc(Br)cc2)o1)c1nc(-c2ccco2)cs1",
    "EXPERIMENTAL SYSTEM": "NCI-H522 lung",
    "CLASS LABEL": 0.0
  },
  {
    "COMPOUND": "CSc1ccc(N(C)c2nc(C)nc3c2CCC3)cc1",
    "EXPERIMENTAL SYSTEM": "NCI-H522 lung",
    "CLASS LABEL": 1.0
  },
  {
    "COMPOUND": "NS(=O)(=O)c1ccc(CCNC(=O)/C=C/c2ccc(Cl)cc2)cc1",
    "EXPERIMENTAL SYSTEM": "NCI-H522 lung",
    "CLASS LABEL": 0.0
  },
  {
    "COMPOUND": "Cc1cc(Nc2ccc(F)cc2)nc(N2CCN(c3ccnc4cc(Cl)ccc34)CC2)n1",
    "EXPERIMENTAL SYSTEM": "NCI-H522 lung",
    "CLASS LABEL": 1.0
  },
  {
    "COMPOUND": "Cc1cc(C)c(NC(=O)c2sc3nc4c(cc3c2N)CCCC4)c(C)c1",
    "EXPERIMENTAL SYSTEM": "NCI-H522 lung",
    "CLASS LABEL": 1.0
  },
  {
    "COMPOUND": "O=[N+]([O-])c1cccc(/C=N\\Nc2ccccc2)c1",
    "EXPERIMENTAL SYSTEM": "NCI-H522 lung",
    "CLASS LABEL": 0.0
  },
  {
    "COMPOUND": "C[C@H]1[C@@H]2[C@H]3CC[C@@H]4[C@@]5(C)Cc6c([nH]c7ccccc67)C(C)(C)[C@@H]5CC[C@@]4(C)[C@]3(C)CC[C@]23CO[C@]1(C)[C@@H](C(=O)/C=C/c1ccccn1)C3",
    "EXPERIMENTAL SYSTEM": "NCI-H522 lung",
    "CLASS LABEL": 0.0
  },
  {
    "COMPOUND": "COc1cc(/C=C/c2cc(/C=C/c3ccc(O)c(OC)c3)n(-c3ccccc3)c(=O)n2)ccc1O",
    "EXPERIMENTAL SYSTEM": "NCI-H522 lung",
    "CLASS LABEL": 0.0
  },
  {
    "COMPOUND": "Cc1nc([P+](c2ccccc2)(c2ccccc2)c2ccccc2)c(Sc2sc(-c3ccccc3)nc2[P+](c2ccccc2)(c2ccccc2)c2ccccc2)o1",
    "EXPERIMENTAL SYSTEM": "NCI-H522 lung",
    "CLASS LABEL": 1.0
  },
  {
    "COMPOUND": "Cc1ccc(Nc2c(C(N)=O)cnc3ccc(S(=O)(=O)Nc4cc(C)on4)cc23)cc1",
    "EXPERIMENTAL SYSTEM": "NCI-H522 lung",
    "CLASS LABEL": 0.0
  },
  {
    "COMPOUND": "COc1ccc(/C=C(\\C#N)c2cc3ccccc3n2C(C)=O)cc1",
    "EXPERIMENTAL SYSTEM": "NCI-H522 lung",
    "CLASS LABEL": 0.0
  },
  {
    "COMPOUND": "CC(=O)Oc1ccccc1C(=O)/C=C/c1cccc([N+](=O)[O-])c1",
    "EXPERIMENTAL SYSTEM": "NCI-H522 lung",
    "CLASS LABEL": 0.0
  },
  {
    "COMPOUND": "Fc1ccc(Nc2ccc3c(OCCCN4CCOCC4)cccc3n2)cc1F",
    "EXPERIMENTAL SYSTEM": "NCI-H522 lung",
    "CLASS LABEL": 0.0
  },
  {
    "COMPOUND": "Brc1ccc2c(c1)c(-c1nc(-c3c[nH]c4ncccc34)cs1)cn2CCCN1CCCCC1",
    "EXPERIMENTAL SYSTEM": "NCI-H522 lung",
    "CLASS LABEL": 1.0
  }
]
